Where do the numbers come from? From patent US20250213558A1.

- system name: Human Cav3.1 calcium channel (Homo sapiens)
- Construct: expressed in transfected cells; host or cells: HEK-293 natClytin/TASK1+Cav3.1 cell line
- Sequence (O43497 whole entry): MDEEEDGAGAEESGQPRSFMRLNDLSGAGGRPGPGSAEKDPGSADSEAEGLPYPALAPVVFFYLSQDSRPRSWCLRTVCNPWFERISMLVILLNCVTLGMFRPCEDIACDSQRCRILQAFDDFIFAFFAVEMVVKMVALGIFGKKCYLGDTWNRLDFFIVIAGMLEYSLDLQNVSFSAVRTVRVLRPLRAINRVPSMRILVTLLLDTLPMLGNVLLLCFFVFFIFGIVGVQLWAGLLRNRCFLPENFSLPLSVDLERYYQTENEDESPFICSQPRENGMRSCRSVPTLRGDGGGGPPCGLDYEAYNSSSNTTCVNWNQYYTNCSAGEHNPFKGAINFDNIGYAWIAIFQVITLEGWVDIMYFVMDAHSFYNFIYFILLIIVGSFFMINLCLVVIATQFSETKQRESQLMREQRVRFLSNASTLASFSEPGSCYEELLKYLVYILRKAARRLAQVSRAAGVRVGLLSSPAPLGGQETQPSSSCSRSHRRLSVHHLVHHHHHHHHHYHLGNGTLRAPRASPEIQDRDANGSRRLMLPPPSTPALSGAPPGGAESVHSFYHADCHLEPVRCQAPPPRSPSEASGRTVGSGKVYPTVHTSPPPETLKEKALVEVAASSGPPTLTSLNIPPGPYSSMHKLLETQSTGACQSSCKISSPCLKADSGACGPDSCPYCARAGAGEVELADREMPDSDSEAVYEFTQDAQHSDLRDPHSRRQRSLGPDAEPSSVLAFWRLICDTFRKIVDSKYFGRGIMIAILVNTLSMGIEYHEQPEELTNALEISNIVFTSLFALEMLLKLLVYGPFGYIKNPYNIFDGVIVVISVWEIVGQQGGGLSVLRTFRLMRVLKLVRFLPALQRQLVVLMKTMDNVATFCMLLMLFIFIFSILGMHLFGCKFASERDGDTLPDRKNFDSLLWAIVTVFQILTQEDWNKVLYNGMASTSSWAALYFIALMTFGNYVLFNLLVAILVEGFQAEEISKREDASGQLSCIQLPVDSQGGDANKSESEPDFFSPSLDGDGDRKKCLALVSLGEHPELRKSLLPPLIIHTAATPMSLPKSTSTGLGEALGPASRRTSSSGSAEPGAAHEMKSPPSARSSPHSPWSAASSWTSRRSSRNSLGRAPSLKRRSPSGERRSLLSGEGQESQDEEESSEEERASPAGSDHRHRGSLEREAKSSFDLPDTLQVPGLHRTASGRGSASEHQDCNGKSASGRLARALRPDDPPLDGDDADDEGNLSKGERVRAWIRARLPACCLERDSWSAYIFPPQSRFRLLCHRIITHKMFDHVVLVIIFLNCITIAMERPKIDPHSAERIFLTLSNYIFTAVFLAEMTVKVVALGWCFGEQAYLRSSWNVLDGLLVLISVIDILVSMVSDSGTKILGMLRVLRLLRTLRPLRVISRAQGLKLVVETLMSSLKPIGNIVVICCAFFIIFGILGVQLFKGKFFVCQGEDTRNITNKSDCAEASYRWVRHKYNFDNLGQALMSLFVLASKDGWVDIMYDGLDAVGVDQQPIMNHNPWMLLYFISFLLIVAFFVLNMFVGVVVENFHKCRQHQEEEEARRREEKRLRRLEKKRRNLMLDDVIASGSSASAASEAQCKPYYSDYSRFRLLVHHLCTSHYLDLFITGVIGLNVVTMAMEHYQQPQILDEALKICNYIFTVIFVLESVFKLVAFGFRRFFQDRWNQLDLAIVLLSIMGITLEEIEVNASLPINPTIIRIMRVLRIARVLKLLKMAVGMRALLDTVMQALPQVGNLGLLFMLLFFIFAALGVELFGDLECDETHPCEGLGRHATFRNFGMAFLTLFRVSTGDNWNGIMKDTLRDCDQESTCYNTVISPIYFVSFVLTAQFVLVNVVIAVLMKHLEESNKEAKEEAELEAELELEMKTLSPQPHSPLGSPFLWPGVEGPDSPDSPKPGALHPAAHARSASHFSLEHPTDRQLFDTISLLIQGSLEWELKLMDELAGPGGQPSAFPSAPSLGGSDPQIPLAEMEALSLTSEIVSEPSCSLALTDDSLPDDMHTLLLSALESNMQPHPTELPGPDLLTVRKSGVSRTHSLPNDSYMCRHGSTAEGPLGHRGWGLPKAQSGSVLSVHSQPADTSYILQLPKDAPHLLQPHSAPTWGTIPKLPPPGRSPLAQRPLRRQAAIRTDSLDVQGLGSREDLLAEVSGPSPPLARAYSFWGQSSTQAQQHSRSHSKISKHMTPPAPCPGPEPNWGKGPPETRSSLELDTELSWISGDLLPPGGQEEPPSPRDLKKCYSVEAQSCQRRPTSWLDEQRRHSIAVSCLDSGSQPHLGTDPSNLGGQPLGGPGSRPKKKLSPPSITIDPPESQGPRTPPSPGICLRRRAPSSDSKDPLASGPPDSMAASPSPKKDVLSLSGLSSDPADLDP
- assay details: Human Cav3.1 calcium channel patch clamp assay (SyncroPatch 384PE; single point and IC50, voltage dependent block)
- Format: cell-based
- experimental conditions: voltage dependent block (VDB); HEK-293 natClytin/TASK1+Cav3.1 cell line; read-out: Cav3.1 IC50
pIC50: −log10 of the molar value.
Please mark class 1 if the recorded pIC50 is equal to or greater than 6, and class 0 if it falls below.

{"compound": "CC(C(=O)Nc1ccc(F)c(OC(F)F)c1)N1C[C@@H]2C[C@H]1CN2CC(=O)NC(C)(C)C (stereo partly shown)", "cat": "class 1"}
{"compound": "CC(C)(C)NC(=O)CN1CC2CC1CN2CC(=O)Nc1cccc(Cl)c1 (stereo not shown)", "cat": "class 0"}
{"compound": "COc1cccc2[nH]c(CN3CC4CCC(C3)N4CC(=O)NC(C)(C)C)nc12", "cat": "class 1"}
{"compound": "CC(C(=O)NC(C)(C)C)N1C2CC1CN(CC(=O)Nc1ccc(F)c(Cl)c1)C2 (stereo not shown)", "cat": "class 1"}
{"compound": "CC(C)(C)NC(=O)CN1C[C@@H]2C[C@H]1CN2CC(=O)NC12CCC(CC1)C2", "cat": "class 0"}
{"compound": "CC(C)Cc1cc(CNC(=O)CN2CCN(CC(=O)NC(C)(C)C)CC2)nn1-c1ccccc1", "cat": "class 0"}
{"compound": "CC1(C)CCCC(=O)N1CCN1C2CC1CN(Cc1nc3c(Cl)cc(F)cc3[nH]1)C2", "cat": "class 1"}
{"compound": "CC(C)(C)CC(=O)N1C2CC1CN(Cc1nc3c(Cl)cc(F)cc3[nH]1)C2", "cat": "class 0"}
{"compound": "O=C(CN1CC2CC(C1)N2CC(=O)NC1(C(F)(F)F)CC1)Nc1ccc(F)c(C(F)F)c1", "cat": "class 1"}
{"compound": "CC(C)(C)NC(=O)CN1C[C@H]2CC[C@@H]1CN2CC(=O)Nc1cc(F)cc(Cl)c1", "cat": "class 1"}
{"compound": "O=C(CN1CC2CC(C1)N2CCC1CCOCC1)NC12CC3CC(CC(C3)C1)C2", "cat": "class 0"}
{"compound": "CC1(C(=O)NCCN2C3CC2CN(Cc2nc4c(Cl)cc(F)cc4[nH]2)C3)CC1", "cat": "class 1"}
{"compound": "CC(C)(C)NC(=O)CN1C[C@@H]2C[C@H]1CN2CC(=O)Nc1cc(Cl)cc(Cl)c1", "cat": "class 1"}
{"compound": "CC(C)(C)NC(=O)CN1CC[C@@H](CNc2nccc3ccc(Cl)cc23)CC1=O", "cat": "class 1"}
{"compound": "CC(C)(C)NC(=O)CN1C[C@@H]2C[C@H]1CN2CC(=O)Nc1cc(F)c(F)c(OC(F)F)c1", "cat": "class 1"}
{"compound": "CC(C(=O)Nc1ccc(F)c(OC(F)F)c1)N1CC2CC(C1)N2CC(=O)NC1(C(F)(F)F)CC1 (stereo not shown)", "cat": "class 1"}
{"compound": "CC(C)(C)NC(=O)CN1C2CCC1CN(Cc1nc3cc(F)cc(Cl)c3o1)C2", "cat": "class 0"}
{"compound": "CC(C)(NC(=O)CN1CC2CC1CN2Cc1nc2c(Cl)ccc(F)c2[nH]1)C(F)(F)F (stereo not shown)", "cat": "class 1"}
{"compound": "Cc1cc(F)cc2[nH]c(CN3CC4CC(C3)N4CCC3CCOCC3)nc12", "cat": "class 0"}
